Tested on: Candida tropicalis 156
Experiment: Antifungal microdilution broth, CT
Type: cell-based
Details: Candida tropicalis, 156, 24 h, read-out: MIC CT
observation-type: MIC

The following molecules have reported results that may help.
Cc1ccc(C(=O)Nc2cnccn2)cc1
> 500 µM
CCc1ccc(C(=O)Nc2cnc(Cl)cn2)cc1
> 125 µM
O=C(Nc1cnccn1)c1ccccc1O
> 500 µM
O=C(Nc1cnccn1)c1cccc(Cl)c1
> 125 µM

The molecule listed as COc1ccccc1C(=O)Nc1cnc(Cl)cn1 shows MIC equal to > 125 µM

The molecule listed as COc1cccc(C(=O)Nc2cnccn2)c1 has a reported MIC of > 500 µM

molecule O=C(Nc1cnc(Cl)cn1)c1ccccc1Cl , MIC observed: > 500 µM

The value of MIC measured for the molecule CC(=O)Oc1ccccc1C(=O)Nc1cnc(Cl)cn1 turned out to be 250 µM

Consider COc1ccccc1C(=O)Nc1cncc(Cl)n1 . Its measured MIC is > 500 µM

Lab note: measured MIC of O=C(Nc1cncc(Cl)n1)c1cccc(Cl)c1 was > 125 µM

Entry O=C(Nc1cnc(Cl)cn1)c1ccc(Cl)cc1 — recorded MIC = > 125 µM

Data origin, for the record: paper PMC6225228
